Test System: Lysyl-tRNA synthetase (KARS) (Homo sapiens)
Assay Text: biochemical
Parameters: gene KARS1
Endpoint Name: Kd (µM)
Give your result in µM as a bare value.

Task item: Give a short answer stating reported Kd for NCCCC[C@H](N)C(=O)O [L-lysine] .
Reply: 118

----------
Test System: Lysyl-tRNA synthetase (KARS) (Homo sapiens, UniProt Q15046)
Sequence (Q15046 70-580): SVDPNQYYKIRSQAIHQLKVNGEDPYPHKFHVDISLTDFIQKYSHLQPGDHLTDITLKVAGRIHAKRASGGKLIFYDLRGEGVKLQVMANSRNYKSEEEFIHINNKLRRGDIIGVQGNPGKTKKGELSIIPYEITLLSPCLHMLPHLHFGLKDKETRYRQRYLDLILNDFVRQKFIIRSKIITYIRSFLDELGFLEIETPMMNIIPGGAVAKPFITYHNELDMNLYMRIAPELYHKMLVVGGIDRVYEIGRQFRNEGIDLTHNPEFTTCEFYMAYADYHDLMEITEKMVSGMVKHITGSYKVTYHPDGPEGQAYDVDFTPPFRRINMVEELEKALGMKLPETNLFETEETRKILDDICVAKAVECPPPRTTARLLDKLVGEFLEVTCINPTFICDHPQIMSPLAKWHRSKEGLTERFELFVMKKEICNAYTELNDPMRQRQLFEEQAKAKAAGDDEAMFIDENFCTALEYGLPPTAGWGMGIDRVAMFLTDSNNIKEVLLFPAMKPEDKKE
Assay Text: co-crystal structure at […] Å; MST Kd; also ATP consumption/AMP production by purified KARS
Format: binding
Parameters: gene KARS1; KARS70-580, C-terminal 6xHis
Endpoint Name: pKd
Field pKd (float): negative decimal logarithm of the concentration in molar.

Task item: For CC(=O)NCCCC[C@H](N)C(=O)O [AcK, N6-acetyl-L-lysine] , write its pKd.
Reply: 3.39
